# test-system: melanocortin MC-4 receptor (Homo sapiens)
# Construct: purchased Receptor Biology Inc
# Sequence (P32245 whole entry): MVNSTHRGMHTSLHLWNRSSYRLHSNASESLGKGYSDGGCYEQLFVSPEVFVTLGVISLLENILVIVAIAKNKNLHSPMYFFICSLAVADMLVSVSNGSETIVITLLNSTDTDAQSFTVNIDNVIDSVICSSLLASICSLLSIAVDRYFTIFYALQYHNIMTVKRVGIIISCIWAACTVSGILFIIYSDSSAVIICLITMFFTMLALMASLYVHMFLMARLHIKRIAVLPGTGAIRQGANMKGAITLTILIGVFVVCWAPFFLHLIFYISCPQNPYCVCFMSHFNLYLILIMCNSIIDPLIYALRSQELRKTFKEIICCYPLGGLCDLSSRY
# method-notes: Melanocortin MC-4 Receptor Binding Assay (SPA)
parameter-measured: IC50 (nM)

>>> print(df.to_string())
                                   compound  result_value
0  Cc1ccccc1Nc1nc(-c2ccccc2)[n+](-c2ccccc2Cl)s1 [Compound 46]           368
1  COc1ccc(Nc2nc(-c3ccc(C)cc3)[n+](-c3ccccc3OC)s2)cc1 [Compound 66]           120
2  COc1ccccc1-c1nc(Nc2ccccc2Cl)s[n+]1-c1ccccc1OC [Compound 80]           378
3  Clc1ccccc1CNc1nc(-c2ccccc2)[n+](-c2ccccc2)s1 [Compound 56]          3000
4  COc1ccccc1Nc1nc(-c2ccccc2)[n+](-c2ccccc2)s1 [Compound 24]            76
